Assay: recombinant UMI read abundance after kanamycin selection (control-corrected) (log10(CPM+1)); higher = more efficient recombination; extreme values may be limits of the assay; sequences stand for … in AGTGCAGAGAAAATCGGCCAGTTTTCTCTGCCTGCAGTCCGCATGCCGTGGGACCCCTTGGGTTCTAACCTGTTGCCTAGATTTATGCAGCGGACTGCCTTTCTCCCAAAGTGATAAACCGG…AGGTTGGTTTCACT; site = the 11-nt donor;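 note: IS621 bridge recombinase in Escherichia coli cells against a fixed T5 target plasmid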
Recorded recombinant UMI read abundance (log10), one value per entry.
Reply briefly: the number, and no unit.

Example entries and their recorded answers appear below.
Seq	recombinant UMI read abundance (log10)
ATCTATTCATGGACCGGTTTTCCCGGTAATCCGTATTTGAC (site ATCTATTCTGT)	1.51
GTCTTGTCATGGACCGGTTTTCCCGGTAATCCGTATTTGTC (site GTCTTGTCTGA)	1.66
ACTAGTGCATGGACCGGTTTTCCCGGTAATCCGTATTTGGC (site ACTAGTGCTCC)	0.0166
AGCTTAGCATGGACCGGTTTTCCCGGTAATCCGTATTTGGG (site AGCTGAGCTCC)	0.034
ATAACGCCATGGACCGGTTTTCCCGGTAATCCGTATTTGAC (site ATAAAGCCTGT)	0
TGTGACGCATGGACCGGTTTTCCCGGTAATCCGTATTTGTG (site TGTGACGCTCA)	0.239

Which recombinant UMI read abundance (log10) value belongs to CGGTACTCATGGACCGGTTTTCCCGGTAATCCGTATTTGGC (site CGGTACTCTGC) ?
3.19

Sample GCAGATTCATGGACCGGTTTTCCCGGTAATCCGTATTTGTT (site GGAGATTCTAA) — what was its recombinant UMI read abundance (log10)?
0

Entry CGTTTCGCATGGACCGGTTTTCCCGGTAATCCGTATTTGCT (site CGTTTTGCTAG) : reported recombinant UMI read abundance (log10) = ?
0

Given the sequence CGTTCCCCATGGACCGGTTTTCCCGGTAATCCGTATTTGTA (site TGTTCCCCTTA) , what is its reported recombinant UMI read abundance (log10)?
0.00473

What recombinant UMI read abundance (log10) value was documented for this sequence, CGTTTGGCATGGACCGGTTTTCCCGGTAATCCGTATTTGCA (site CGTTTGGCTAG) ?
0

What does the record list as recombinant UMI read abundance (log10) for TGTAGACCATGGACCGGTTTTCCCGGTAATCCGTATTTGAC (site TGTACACCTGT) ?
0

What value of measured recombinant UMI read abundance (log10) is listed for CCCGGTCCATGGACCGGTTTTCCCGGTAATCCGTATTTGCA (site CCCGGTCCTCG) ?
0
